Data origin: paper PMC7216467

Procedure details: DPPH scavenging assay
Metric name: DPPH IC50 (µg/mL)
Give the quantity in µg/mL, number only.

Consider the worked cases shown below.
O=C(O)c1cc(O)c(O)c(O)c1 [Compound-III, Gallic acid] :: 52
O=C1O[C@H]([C@@H](O)CO)C(O)=C1O [Ascorbic acid, reference compound] :: 29
O=c1oc2c(O)c(O)cc3c(=O)oc4c(O)c(O)cc1c4c23 [Compound-II, Ellagic acid] :: 39

GET /value?item= Oc1cc(O)cc(O)c1 [Compound-IV, Phloroglucinol] &field=DPPH IC50 returns 105

----------
Subject of test: Acetyl cholinesterase (Electron-eel Type, VI-S) (Electrophorus electricus, UniProt O42275)
Construct: purchased Sigma-Aldrich, Germany
Sequence (O42275 24-633): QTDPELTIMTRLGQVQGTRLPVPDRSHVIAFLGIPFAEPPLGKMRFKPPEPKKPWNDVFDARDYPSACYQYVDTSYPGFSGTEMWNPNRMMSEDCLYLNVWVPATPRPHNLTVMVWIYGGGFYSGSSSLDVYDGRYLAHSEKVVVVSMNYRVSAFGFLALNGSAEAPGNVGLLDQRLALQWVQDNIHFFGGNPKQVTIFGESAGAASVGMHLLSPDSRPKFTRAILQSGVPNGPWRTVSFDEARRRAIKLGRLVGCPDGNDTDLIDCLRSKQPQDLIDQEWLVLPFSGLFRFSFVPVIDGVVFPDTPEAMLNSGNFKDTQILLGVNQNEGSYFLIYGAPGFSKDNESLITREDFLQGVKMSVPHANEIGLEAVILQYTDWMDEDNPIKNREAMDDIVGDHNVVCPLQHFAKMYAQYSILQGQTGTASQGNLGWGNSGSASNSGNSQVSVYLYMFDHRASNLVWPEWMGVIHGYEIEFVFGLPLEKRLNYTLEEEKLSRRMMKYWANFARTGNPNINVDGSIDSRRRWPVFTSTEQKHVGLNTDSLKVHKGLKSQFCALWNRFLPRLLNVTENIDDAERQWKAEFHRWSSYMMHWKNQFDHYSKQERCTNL
Procedure details: biochemical
Format: biochemical
Particulars: 62.5 µg/mL
Below, each entry is listed alongside its reported % AChE Mean ± SEM.
Give the quantity in %, number only.

Consider the worked cases shown below.
O=c1oc2c(O)c(O)cc3c(=O)oc4c(O)c(O)cc1c4c23 [Compound-II, Ellagic acid] :: 48
O=C(/C=C/c1ccc(O)c(O)c1)O[C@@H]1C[C@](O)(C(=O)O)C[C@@H](O)[C@H]1O [Compound-I, Chlorogenic acid] :: 59
O=C(O)c1cc(O)c(O)c(O)c1 [Compound-III, Gallic acid] :: 43

Proceed to the following item.
GET /value?item= Oc1cc(O)cc(O)c1 [Compound-IV, Phloroglucinol] &field=% AChE Mean ± SEM returns 29

----------
Below, each entry is listed alongside its reported % ABTS Scavenging Mean ± SEM.
Procedure details: ABTS scavenging assay
Particulars: 250 µg/mL
Give the quantity in %, number only.

GET /value?item= Oc1cc(O)cc(O)c1 [Compound-IV, Phloroglucinol] &field=% ABTS Scavenging Mean ± SEM returns 45

GET /value?item= O=c1oc2c(O)c(O)cc3c(=O)oc4c(O)c(O)cc1c4c23 [Compound-II, Ellagic acid] &field=% ABTS Scavenging Mean ± SEM returns 64

GET /value?item= O=C(O)c1cc(O)c(O)c(O)c1 [Compound-III, Gallic acid] &field=% ABTS Scavenging Mean ± SEM returns 54

GET /value?item= O=C1O[C@H]([C@@H](O)CO)C(O)=C1O [Ascorbic acid, reference compound] &field=% ABTS Scavenging Mean ± SEM returns 78

----------
Subject of test: Acetyl cholinesterase (Electron-eel Type, VI-S) (Electrophorus electricus)
Construct: purchased Sigma-Aldrich, Germany
Procedure details: biochemical
Type: biochemical
Particulars: 500 µg/mL
Metric name: % AChE Mean ± SEM (%)
Give the quantity in %, number only.

Consider the worked cases shown below.
O=C(O)c1cc(O)c(O)c(O)c1 [Compound-III, Gallic acid] :: 62
O=c1oc2c(O)c(O)cc3c(=O)oc4c(O)c(O)cc1c4c23 [Compound-II, Ellagic acid] :: 75

GET /value?item= Oc1cc(O)cc(O)c1 [Compound-IV, Phloroglucinol] &field=% AChE Mean ± SEM returns 52

GET /value?item= O=C(/C=C/c1ccc(O)c(O)c1)O[C@@H]1C[C@](O)(C(=O)O)C[C@@H](O)[C@H]1O [Compound-I, Chlorogenic acid] &field=% AChE Mean ± SEM returns 82
